# Experimental System: TIP48/TIP49 complex (Homo sapiens, UniProt Q9Y230+Q9Y265)
# Sequence (Q9Y230 whole entry): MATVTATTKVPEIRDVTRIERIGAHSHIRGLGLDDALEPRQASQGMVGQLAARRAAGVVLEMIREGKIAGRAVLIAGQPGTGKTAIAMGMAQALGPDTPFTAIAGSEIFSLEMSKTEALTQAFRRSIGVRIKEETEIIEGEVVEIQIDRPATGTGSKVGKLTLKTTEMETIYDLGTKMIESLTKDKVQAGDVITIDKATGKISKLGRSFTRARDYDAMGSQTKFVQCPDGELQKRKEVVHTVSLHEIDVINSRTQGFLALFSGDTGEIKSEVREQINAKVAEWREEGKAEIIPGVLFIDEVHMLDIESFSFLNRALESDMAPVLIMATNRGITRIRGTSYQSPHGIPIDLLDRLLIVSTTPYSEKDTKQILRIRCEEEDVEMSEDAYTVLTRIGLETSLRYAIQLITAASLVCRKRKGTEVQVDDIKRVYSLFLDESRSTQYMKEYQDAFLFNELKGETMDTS
# Sequence (Q9Y265 whole entry): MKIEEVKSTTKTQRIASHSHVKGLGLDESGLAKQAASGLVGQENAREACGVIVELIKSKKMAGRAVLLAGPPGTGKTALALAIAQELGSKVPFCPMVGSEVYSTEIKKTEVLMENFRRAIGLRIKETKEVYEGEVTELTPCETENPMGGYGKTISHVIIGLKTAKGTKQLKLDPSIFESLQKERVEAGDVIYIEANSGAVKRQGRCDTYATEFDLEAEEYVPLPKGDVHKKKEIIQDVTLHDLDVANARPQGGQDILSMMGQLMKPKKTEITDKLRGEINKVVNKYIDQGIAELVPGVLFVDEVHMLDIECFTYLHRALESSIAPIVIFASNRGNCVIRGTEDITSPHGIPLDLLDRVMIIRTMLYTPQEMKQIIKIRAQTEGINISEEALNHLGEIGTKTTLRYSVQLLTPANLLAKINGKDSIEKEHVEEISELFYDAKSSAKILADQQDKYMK
# Protocol Notes: ATPase assay of TIP48/TIP49 complex (ADP-Glo)
# Assay Context: concentration at which the ATPase activity was inhibited by 50%
pIC50: −log10 of the molar value.
Short version: pIC50 at least 7 is yes (1), less is no (0).

Before answering, review these 5 worked examples.
[
  {
    "Compound": "Cc1c(NC(=O)CC(C)(C)CNC(=O)c2cc(Cl)ccc2OC2COC2)c(=O)n(-c2ccccc2)n1C [Example 108]",
    "Label Value": "no (0)"
  },
  {
    "Compound": "Cc1cccc(-n2c(=O)c(NC(=O)CC(C)(C)CNC(=O)c3cc(Cl)cc4cc(C)oc34)c(C)n2C)n1 [Example 155]",
    "Label Value": "yes (1)"
  },
  {
    "Compound": "CCOc1cc(F)c(Cl)cc1NC(=O)CC(C)(C)CC(=O)Nc1c(CCN(C)C)n(C)n(-c2ccccc2)c1=O [Example 24]",
    "Label Value": "no (0)"
  },
  {
    "Compound": "Cc1c(NC(=O)CC(C)(C)CNC(=O)c2cc(Cl)cc3c2OC(C)CN3C)c(=O)n(-c2ccccc2)n1C (stereo not shown) [Example 110]",
    "Label Value": "yes (1)"
  },
  {
    "Compound": "CCOc1ccc(Cl)cc1C(=O)NCC(C)(C)CC(=O)Nc1c(CCCCO)n(C)n(-c2ccccc2)c1=O [Example 130]",
    "Label Value": "yes (1)"
  }
]

Request: Form field: pIC50 at least 7? Entry: COCOc1cc(F)c(Cl)cc1C(=O)NCC(C)(C)CC(=O)Nc1c(COC)n(C)n(-c2ccccc2)c1=O [Example 116]
Response: yes (1)

Request: Does the reported pIC50 for CCOc1ncc(Br)cc1C(=O)NCC(C)(C)CC(=O)Nc1c(C(C)CN(C)C)n(C)n(-c2ccccc2)c1=O (stereo not shown) [Example 74] fall at or above the 7 mark?
Response: no (0)

###

# System: human lymphoma cell line RAMOS cells
# Protocol Notes: Cell growth inhibition test using RAMOS cell, MTT assay
# Type: cell-based
# Assay Context: 50% growth inhibition concentration
Threshold-based label: GI50 under 400 nM gives Yes, GI50 not under 400 nM gives No.

Some solved entries appear below for comparison.
[
  {
    "Compound": "CCc1nc2c(C(=O)NCC(C)(C)CC(=O)Nc3c(C)n(C)n(-c4ccccc4)c3=O)cc(Cl)cc2o1 [Example 111]",
    "Experimental System": "human lymphoma cell line RAMOS cells",
    "Label Value": "Yes"
  },
  {
    "Compound": "COc1ncc(Cl)cc1C(=O)NCC(C)(C)CC(=O)Nc1c(CN(C)C)n(C)n(-c2ccccc2)c1=O [Example 7]",
    "Experimental System": "human lymphoma cell line RAMOS cells",
    "Label Value": "No"
  },
  {
    "Compound": "COc1ccc(Cl)cc1NC(=O)CC(C)(C)CC(=O)Nc1c(C(C)C)n(C)n(-c2ccccc2)c1=O [Example 128]",
    "Experimental System": "human lymphoma cell line RAMOS cells",
    "Label Value": "No"
  }
]

Request: Item CCOc1ccc(Cl)cc1C(=O)NCC(C)(C)CC(=O)Nc1c(C)n(C(C)C)n(-c2ccccn2)c1=O [Example 156] : GI50 beneath 400 nM, strictly?
Response: Yes

Request: Field: below-cutoff. Rule: recorded GI50 strictly less than 400 nM. Subject: CCOc1ccc(Cl)cc1C(=O)NCC(C)(C)CC(=O)Nc1c(C)n(C)n(-c2ccccc2)c1=O [Example 93]
Response: Yes

Request: Input CCOc1cc(F)c(Cl)cc1C(=O)NCC(C)(C)CC(=O)Nc1c(COC)n(C)n(-c2ccccc2)c1=O [Example 113] ; condition: GI50 strictly below 400 nM. Does it hold?
Response: Yes

###

# Tested on: human lymphoma cell line RAMOS cells
# Protocol Notes: Cell growth inhibition test using RAMOS cell, MTT assay
# Format: cell-based
# Assay Context: 50% growth inhibition concentration
Quick list: log10(GI50) per entry.
Please note: log10 values; quantity GI50; unit nM.

Past entries and their recorded results:
[
  {
    "Molecular String": "CCOc1ncc(Cl)cc1C(=O)NCC(C)(C)CC(=O)Nc1c(C)n(C)n(-c2ccccn2)c1=O",
    "Experimental System": "human lymphoma cell line RAMOS cells",
    "log10(GI50)": 2.54
  },
  {
    "Molecular String": "CNCc1c(NC(=O)CC(C)(C)CNC(=O)c2cc(Cl)ccc2OC)c(=O)n(-c2ccccc2)n1C",
    "Experimental System": "human lymphoma cell line RAMOS cells",
    "log10(GI50)": 2.23
  },
  {
    "Molecular String": "COCc1c(NC(=O)CC(C)(C)CNC(=O)c2cc(Cl)cc3c2OC(C)(C)C3)c(=O)n(-c2ccccc2)n1C",
    "Experimental System": "human lymphoma cell line RAMOS cells",
    "log10(GI50)": 2.15
  }
]

Request: Could you share which log10(GI50) value was measured for `CCOc1ccc(Cl)cc1C(=O)NCC(C)(C)CC(=O)Nc1c(CCN(C)CC)n(C)n(-c2ccccc2)c1=O` ?
Response: 1.99

Request: Look up log10(GI50): `Cc1cc2cc(Cl)cc(C(=O)NCC(C)(C)CC(=O)Nc3c(CCN(C)C)n(C)n(-c4ccccc4)c3=O)c2o1`
Response: 1.51

Request: So what does the record say about log10(GI50) for `COc1ccc(Cl)cc1NC(=O)CC1(CC(=O)Nc2c(C)n(C)n(-c3ccccc3)c2=O)CC1` ?
Response: 3.51

###

# Experimental System: TIP48/TIP49 complex (Homo sapiens, UniProt Q9Y230+Q9Y265)
# Protocol Notes: ATPase assay of TIP48/TIP49 complex (ADP-Glo)
# Assay Context: concentration at which the ATPase activity was inhibited by 50%
Quantity Measured: pIC50
Note on units: pIC50 is unitless, being -log10 of a concentration expressed in mol/L.

[
  {
    "Molecular String": "CCOc1ccc(Cl)cc1C(=O)NCC(C)(C)CC(=O)Nc1c(CCCC(=O)N(C)C)n(C)n(-c2ccccc2)c1=O",
    "Experimental System": "TIP48/TIP49 complex (Homo sapiens, UniProt Q9Y230+Q9Y265)",
    "pIC50": 7.28
  },
  {
    "Molecular String": "CCOc1ncc(Cl)cc1C(=O)NCC(C)(C)CC(=O)Nc1c(CC(C)(C)N(C)C)n(C)n(-c2ccccc2)c1=O",
    "Experimental System": "TIP48/TIP49 complex (Homo sapiens, UniProt Q9Y230+Q9Y265)",
    "pIC50": 7.15
  }
]

Request: Look up pIC50 for this compound: `CCOc1ccc(Cl)cc1NC(=O)CC(C)(C)CC(=O)Nc1c(CCN(C)C)n(C)n(-c2ccccc2)c1=O`
Response: 6.96

Request: GET /values?readout=pIC50&item= `CCOc1ccc(Cl)cc1C(=O)NCC(C)(C)CC(=O)Nc1c(C(C)(C)CN(C)C)n(C)n(-c2ccccc2)c1=O`
Response: 7.10

###

# Experimental System: TIP48/TIP49 complex (Homo sapiens, UniProt Q9Y230+Q9Y265)
# Protocol Notes: ATPase assay of TIP48/TIP49 complex (ADP-Glo)
# Assay Context: concentration at which the ATPase activity was inhibited by 50%
Catalogue of pIC50 readings, one per entry.
pIC50 is defined as minus the log10 of a concentration measured in mol/L.

Take a look at these entries with their results.
[
  {
    "Compound": "Cc1c(NC(=O)CC(C)(C)CNC(=O)c2cc(Cl)cc3c2OC(C)(C)C3)c(=O)n(-c2ccccc2)n1CCO",
    "Reported": 7.60
  },
  {
    "Compound": "CCOc1ccc(Cl)cc1C(=O)NCC(C)(C)CC(=O)Nc1c(C(C)C(C)(C)N(C)C)n(C)n(-c2ccccc2)c1=O (stereo not drawn)",
    "Reported": 7.28
  },
  {
    "Compound": "CCOc1cc(F)c(Cl)cc1C(=O)NCC(C)(C)CC(=O)Nc1c([C@H](C)OC)n(C)n(-c2ccccc2)c1=O",
    "Reported": 7.41
  }
]

Request: Recorded pIC50 for `CCOc1ccc(Cl)cc1C(=O)NCC(C)(C)CC(=O)Nc1c(CCN(C)C)n(C)n(-c2ccccc2F)c1=O` , please?
Response: 7.11

Request: Which pIC50 reading was recorded for the compound CCOc1ccc(Cl)cc1C(=O)NCC(C)(C)CC(=O)Nc1c(C(C)CN(C)C)n(C)n(-c2ccccc2)c1=O (stereo not drawn) ?
Response: 7.24

Request: Record request: pIC50 value, item `COc1cc(F)c(Cl)cc1C(=O)NCC(C)(C)CC(=O)Nc1c(CN(C)C)n(C)n(-c2ccccc2)c1=O`
Response: 6.82
